# System: SW 962
# method-description: cells
# Assay type: functional, cell-based, Homo sapiens
# details: Homo sapiens, SW 962
# Description: SANGER: Inhibition of human SW962 cell growth in a cell viability assay.

>  <compound>
NC(=O)Nc1cc(-c2cccc(F)c2)sc1C(=O)N[C@H]1CCCNC1 [AZD-7762]

>  <study-target>
SW 962

>  <scale-unit>
nM

>  <comparator>
>

>  <IC50>
2000

$$$$
>  <compound>
C[C@@H](Oc1cc(-c2cnn(C3CCNCC3)c2)cnc1N)c1c(Cl)ccc(F)c1Cl [CRIZOTINIB]

>  <study-target>
SW 962

>  <scale-unit>
nM

>  <comparator>
>

>  <IC50>
2000

$$$$
>  <compound>
C=CC(=O)N1CCCC(Nc2nc(Nc3ccc(N(C)C(=O)CC)cc3)nc3[nH]cnc23)C1 (centres undefined)

>  <study-target>
SW 962

>  <scale-unit>
nM

>  <comparator>
=

>  <IC50>
5160

$$$$
>  <compound>
CS(=O)(=O)N1CCN(Cc2cc3nc(-c4cccc5[nH]ncc45)nc(N4CCOCC4)c3s2)CC1 [PICTILISIB]

>  <study-target>
SW 962

>  <scale-unit>
nM

>  <comparator>
=

>  <IC50>
3730

$$$$
>  <compound>
Cc1ccc(C(=O)Nc2ccc(CN3CCN(C)CC3)c(C(F)(F)F)c2)cc1C#Cc1cnc2cccnn12 [PONATINIB]

>  <study-target>
SW 962

>  <scale-unit>
nM

>  <comparator>
>

>  <IC50>
512

$$$$
>  <compound>
C/C(=C\c1csc(C)n1)[C@@H]1C[C@@H]2O[C@]2(C)CCC[C@H](C)[C@H](O)[C@@H](C)C(=O)C(C)(C)[C@@H](O)CC(=O)O1 [PATUPILONE]

>  <study-target>
SW 962

>  <scale-unit>
nM

>  <comparator>
=

>  <IC50>
1.04

$$$$
>  <compound>
COc1ccc(N(C(=O)Oc2c(C)cccc2C)c2ccnc(Nc3ccc(N4CCN(C)CC4)cc3)n2)c(OC)c1

>  <study-target>
SW 962

>  <scale-unit>
nM

>  <comparator>
=

>  <IC50>
1340

$$$$
>  <compound>
NC1(c2ccc(-c3nc4ccn5c(=O)[nH]nc5c4cc3-c3ccccc3)cc2)CCC1 [MK-2206]

>  <study-target>
SW 962

>  <scale-unit>
nM

>  <comparator>
>

>  <IC50>
4000

$$$$
>  <compound>
COc1ccc(-c2cc3nccn3c(Nc3ncccc3C(N)=O)n2)cc1OC

>  <study-target>
SW 962;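 note: growth inhibition of human SW962 cells, read out by a cell viability assay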

>  <scale-unit>
nM

>  <comparator>
>

>  <IC50>
8000

$$$$
